Target: T1, human vascular endothelial growth factor receptor-2 Fc chimera (KDR-Fc) (human, UniProt P35968 20-764)
T1 construct: range 1-764; also called human VEGFR-2; VEGF-R2-Fc; not shown: human IgG1 Fc
T1 sequence (P35968 20-764 limits assumed, change not shown, form in doubt): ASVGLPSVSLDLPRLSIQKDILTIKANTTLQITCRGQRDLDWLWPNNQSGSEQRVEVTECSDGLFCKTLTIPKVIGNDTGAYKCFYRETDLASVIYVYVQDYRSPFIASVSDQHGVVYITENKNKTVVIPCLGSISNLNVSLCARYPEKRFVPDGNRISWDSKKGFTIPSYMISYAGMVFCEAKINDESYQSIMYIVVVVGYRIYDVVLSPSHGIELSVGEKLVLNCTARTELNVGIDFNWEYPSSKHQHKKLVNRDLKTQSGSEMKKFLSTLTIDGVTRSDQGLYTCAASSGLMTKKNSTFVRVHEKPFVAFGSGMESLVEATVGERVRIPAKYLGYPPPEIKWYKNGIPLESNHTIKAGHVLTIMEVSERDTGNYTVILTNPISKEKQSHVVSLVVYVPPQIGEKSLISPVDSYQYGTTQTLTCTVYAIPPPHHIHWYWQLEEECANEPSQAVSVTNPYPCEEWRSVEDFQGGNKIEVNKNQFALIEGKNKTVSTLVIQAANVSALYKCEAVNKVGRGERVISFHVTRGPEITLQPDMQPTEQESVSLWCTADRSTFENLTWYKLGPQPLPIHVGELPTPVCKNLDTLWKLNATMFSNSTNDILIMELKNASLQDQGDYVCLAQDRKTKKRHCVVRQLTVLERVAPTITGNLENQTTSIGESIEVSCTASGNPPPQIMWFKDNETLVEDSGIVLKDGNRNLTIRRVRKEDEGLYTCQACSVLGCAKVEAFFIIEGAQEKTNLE
Assay: radioactive equilibrium binding, 1 nM KDR-Fc
Procedure: To prepare ³⁵S-labeled binding proteins for analysis, mRNA was prepared as described above for RNA-protein fusion production but the linker ligation step was omitted. […] 50 μA of the reaction mixture and elution were dried onto a LumaPlate-96 (Packard) and the amount of ³⁵S on the plate was measured using a TopCount NXT instrument (Packard). […] Data was analyzed using the GraphPad Prizm software (GraphPad Software, Inc, San Diego, Calif.), fitted using a one site, non-linear binding equation.
Label key: Criterion met means Binding to 1 nM KDR, % under 20%; Criterion not met means Binding to 1 nM KDR, % of 20% or more.

Lab log: compare recorded Binding to 1 nM KDR, % with 20%; is it strictly lower for 2′Del F7 PR4 (designed binder, Del 1-8) EVVAATPTSLLISWRHPHFPTRYYRITYGETGGNSPVQEFTVPLQPPTATISGLKPGVDYTITGYAVTLGLRDRELFVPISINYRT ?
Criterion not met

Identify whether the binder 3′F3 PR4 (designed binder, Del 1-8) EVVAATPTSLLISWRHPHFPTRYYRITYGETGGNSPVQEFTVPLQPPTATISGLKPGVDYTITGYAVTLGHNDRELLTPISINYRT records Binding to 1 nM KDR, % below 20%.
Criterion not met

API: query returns whether the binder falls strictly under 20% in Binding to 1 nM KDR, %. Query: 3′F2 PR4 (designed binder, Del 1-8) EVVAATPTSLLISWRHPHFPTRYYRITYGETGGNSPVQEFTVPLQPPTATISGLKPGVDYTITGYAVTLGKNDHELLTPISINYRT
Criterion not met

# check: Binding to 1 nM KDR, % < 20% for 4′E7 PR4 (designed binder, Del 1-8) EVVAATPTSLLISWRHPHFPTRYYRITYGETGGNSPVQEFTVPLQPPTATISGLKPGVDYTITGYAVTWAQNDHELLTPISINYRT
Criterion met

Is 20% strictly greater than the binder's reported Binding to 1 nM KDR, %? binder: 3′G7 PR4 (designed binder, Del 1-8) EVVAATPTSLLISWRHPHFPTRYYRITYGETGGNSPVQEFTVPLQPPTATISGLKPGVDYTITGYAVTEGQNDQLLFIPISINYRT
Criterion met

Recorded values, source patent US20140179896A1.
